Provide the recorded Specific activity, Eriodictyol chalcone for the entries that follow.
Assay: Specific activity of purified CHI, absorbance decrease at 384 nm, eriodictyol chalcone; also: unit not given here
Assay type: biochemical
Settings: purified CHI in 50 mM PBS, 100 μM substrate, 25° C.
Quick one: just the number, no unit, thanks!

Just so you know, measured Specific activity, Eriodictyol chalcone for CHIera Mut7: Chalcone isomerase variant 7 from Eubacterium ramulus, genetically engineered (protein, listed as Eubacterium ramulus) MADFKFEPMRSLIYVDCVSEDYRPKLQRWIYKVHIPDSISTFEPYVTKYAFYPSFPIPPQGDRFGYARMQLTEHHWLVSELDPRLEIRAIAETFPMDVLVWQGQIPAAAHTDAQIDSDGDAGDAARKSNNAEGNPFIFAFLPMWWEKDLKGKGRTIEDGANYRFNMTIGFPEGVDKAEGEKWLFEKVVPILQAAPECTRVLASAVKKDINGCVMDWVLEIWFENQSGWYKVMVDDMKALEKPSWAQQDAFPFLKPYHNVCSAAVADYTPSNNLANYRGYITMR came out at 181.3

Just so you know, measured Specific activity, Eriodictyol chalcone for CHIera Mut12: Chalcone isomerase variant 12 from Eubacterium ramulus, genetically engineered (protein, listed as Eubacterium ramulus) MADFKFEPMRSLIYVDCVSEDYRPKLQRWIYKVHIPDSISKFEPYVTKYAFYPSFPIPPQGDRFGYARMQLTEHHWLVSPLDPRLEINAIAETFPMDVLVWQGQIPAAAHTDAQIDSDGDAARAARKSNNAEGNPFIFAFLPMWWEKDLKGKGRTIEDGANYRFNMTIGFPEGVDKAEGEKWLFEKVVPILQAAPECTRVLASAVKKDINGCVMDWVLEIWFENQSGWYKVMVDDMKALEKPSWAQQDAFPFLKPYHNVCSAAVADYTPSNNLANYRGYITMR came out at 19.9
